Reported values of inhibition for individual entries
Biological target: MAP/microtubule affinity-regulating kinase 3 (Homo sapiens) (UniProt P27448);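 also: reported values are averaged percent inhibition of MARK3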
Sequence (P27448 whole entry, looked up): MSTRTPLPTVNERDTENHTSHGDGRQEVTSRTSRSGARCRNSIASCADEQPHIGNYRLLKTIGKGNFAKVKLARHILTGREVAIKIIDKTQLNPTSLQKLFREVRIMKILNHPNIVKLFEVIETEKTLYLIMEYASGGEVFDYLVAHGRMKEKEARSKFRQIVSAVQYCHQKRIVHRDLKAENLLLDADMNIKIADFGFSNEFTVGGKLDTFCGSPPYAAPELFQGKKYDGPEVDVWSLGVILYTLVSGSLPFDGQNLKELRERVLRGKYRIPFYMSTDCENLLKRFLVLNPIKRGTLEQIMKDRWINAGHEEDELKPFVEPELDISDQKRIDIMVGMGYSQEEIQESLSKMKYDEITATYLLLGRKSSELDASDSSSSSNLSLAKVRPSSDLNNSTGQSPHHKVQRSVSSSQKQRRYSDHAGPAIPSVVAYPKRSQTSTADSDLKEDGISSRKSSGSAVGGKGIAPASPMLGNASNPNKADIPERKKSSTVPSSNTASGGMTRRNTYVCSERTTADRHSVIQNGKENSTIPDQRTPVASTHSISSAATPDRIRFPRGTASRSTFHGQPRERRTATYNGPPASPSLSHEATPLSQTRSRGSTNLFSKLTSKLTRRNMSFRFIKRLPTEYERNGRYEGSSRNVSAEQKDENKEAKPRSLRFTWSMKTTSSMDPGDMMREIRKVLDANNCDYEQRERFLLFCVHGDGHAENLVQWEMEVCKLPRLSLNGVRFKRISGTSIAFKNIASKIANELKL
Settings: at 1 µM
API: value field is a number in %; no unit string.

- compound: "COc1cc(N2CCN(C(C)C)CC2)ccc1Nc1nc(Nc2cccc3ncccc23)c2cc[nH]c2n1"
  target: "MAP/microtubule affinity-regulating kinase 3 (Homo sapiens) (UniProt P27448)"
  observed measurement: 3.2

IN: Suppose we examine the compound CS(=O)(=O)CCNCc1ccc(-c2ccc3ncnc(Nc4ccc(OCc5cccc(C(F)(F)F)c5)cc4)c3c2)o1 ; what inhibition value has been reported?
OUT: 3.96

IN: Can you check CN(C)CCNC(=O)Nc1ccc(N(C)c2ccnc(Nc3ccc(CS(C)(=O)=O)cc3)n2)cc1 next?
OUT: 6.62

IN: Can you check CS(=O)(=O)CCNCc1ccoc1-c1ccc2ncnc(Nc3ccc(OCc4ccccc4)cc3)c2c1 next?
OUT: -1.52

IN: Can you check CCS(=O)(=O)c1ccc(OC)c(Nc2ncc(-c3cccc(F)c3)o2)c1 next?
OUT: 2.56

IN: Can you check CCOc1ccc2c(-c3ccnc(Nc4cc(OC)cc(C(F)(F)F)c4)n3)cnn2n1 next?
OUT: -0.83

IN: Can you check NS(=O)(=O)c1cccc(N/C=C2\C(=O)Nc3ccccc32)c1 next?
OUT: 17

* * *

Molecular target: Mitogen-activated protein kinase kinase kinase kinase 4 (Homo sapiens) (UniProt O95819);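 also: reported figure is an averaged inhibition value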
Sequence (O95819 2-1239 limits assumed): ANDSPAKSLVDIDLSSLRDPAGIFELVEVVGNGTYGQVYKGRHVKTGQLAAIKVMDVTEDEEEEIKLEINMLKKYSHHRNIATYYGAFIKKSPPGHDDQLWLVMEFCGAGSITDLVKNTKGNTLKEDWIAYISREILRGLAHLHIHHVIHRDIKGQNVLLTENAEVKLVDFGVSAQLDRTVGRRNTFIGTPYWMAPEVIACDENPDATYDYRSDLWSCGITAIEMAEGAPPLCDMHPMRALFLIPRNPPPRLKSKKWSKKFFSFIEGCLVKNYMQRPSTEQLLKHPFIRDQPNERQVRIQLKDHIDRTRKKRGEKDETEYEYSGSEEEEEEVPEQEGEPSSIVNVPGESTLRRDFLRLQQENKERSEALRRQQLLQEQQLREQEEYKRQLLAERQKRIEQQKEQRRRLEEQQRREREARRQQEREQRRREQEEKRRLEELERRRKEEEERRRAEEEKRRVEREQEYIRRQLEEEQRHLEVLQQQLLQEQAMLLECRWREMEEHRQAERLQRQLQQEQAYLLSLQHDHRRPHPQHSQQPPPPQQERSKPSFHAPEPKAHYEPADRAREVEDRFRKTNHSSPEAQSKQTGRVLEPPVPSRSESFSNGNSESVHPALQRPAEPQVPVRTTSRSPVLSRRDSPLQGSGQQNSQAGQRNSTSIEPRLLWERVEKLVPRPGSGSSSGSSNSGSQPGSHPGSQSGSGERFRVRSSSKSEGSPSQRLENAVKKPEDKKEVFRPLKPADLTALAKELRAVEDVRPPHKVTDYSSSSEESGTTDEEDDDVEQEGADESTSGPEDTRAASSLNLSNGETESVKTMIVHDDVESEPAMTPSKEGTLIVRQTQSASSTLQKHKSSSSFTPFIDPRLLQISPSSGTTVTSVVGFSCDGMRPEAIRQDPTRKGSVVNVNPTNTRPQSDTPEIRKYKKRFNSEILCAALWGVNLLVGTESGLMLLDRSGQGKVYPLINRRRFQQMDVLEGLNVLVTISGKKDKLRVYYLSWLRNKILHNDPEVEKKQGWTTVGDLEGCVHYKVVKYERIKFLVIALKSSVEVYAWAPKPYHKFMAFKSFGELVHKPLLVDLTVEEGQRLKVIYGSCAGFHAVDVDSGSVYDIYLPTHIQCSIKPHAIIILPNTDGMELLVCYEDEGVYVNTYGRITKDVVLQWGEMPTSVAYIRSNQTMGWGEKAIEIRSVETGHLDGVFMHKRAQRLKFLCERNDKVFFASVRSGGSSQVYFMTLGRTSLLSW
Settings: at 1 µM
# if value of inhibition reaches 10%, tag 1.0; if it stays below, tag 0.0

- smiles structure: "Fc1cccc(COc2ccc(Nc3ncncc3C#Cc3ccccc3)cc2Cl)c1"
  discrete label: 1.0
- smiles structure: "CC(C)c1ccc(-c2cc(-c3c[nH]nc3-c3ccccn3)ccn2)cc1"
  discrete label: 1.0
- smiles structure: "Cc1cc(O)cc(C)c1/C=C/c1cncc(C(=O)OC(C)(C)C)c1"
  discrete label: 1.0
- smiles structure: "CS(=O)(=O)CCNCc1ccc(-c2ccc3ncnc(Nc4ccc(OCc5cccc(C(F)(F)F)c5)cc4)c3c2)o1"
  discrete label: 0.0
- smiles structure: "N#Cc1ccc2c(-c3ccnc(NC4CC4)n3)c(-c3ccc(F)cc3)nn2c1"
  discrete label: 1.0
- smiles structure: "FC(F)(F)CNc1nccc(-c2cnn3ncccc23)n1"
  discrete label: 0.0
- smiles structure: "O=C(Nc1n[nH]c2nnc(-c3cccnc3)cc12)C1CC1"
  discrete label: 1.0
- smiles structure: "COC(=O)Nc1nc2cc(Oc3ccc(NC(=O)Nc4ccccc4)cc3)ccc2[nH]1"
  discrete label: 1.0

IN: Could you please find out whether CS(=O)(=O)CCNCc1ccc(-c2ccc3ncnc(Nc4ccc(OCc5ccccc5)cc4)c3c2)o1 has inhibition that meets 10% or exceeds it?
OUT: 0.0

IN: Can you check CN1CCC(n2cnc(-c3ccc(F)cc3)c2-c2ccnc(NCCO)n2)CC1 next?
OUT: 1.0

IN: Can you check COc1ccccc1-c1cc(/C=C2\C(=O)Nc3ncc(Br)cc32)cc(Br)c1O next?
OUT: 1.0

IN: Can you check CN(C)CCNC(=O)Nc1ccc(N(C)c2ccnc(Nc3ccc(CS(C)(=O)=O)cc3)n2)cc1 next?
OUT: 1.0

IN: Can you check CS(=O)(=O)Nc1ccc(-c2ccc3c(NC(=O)C4CC4)n[nH]c3c2)cc1 next?
OUT: 1.0

IN: Can you check Fc1ccc(Nc2nccc(-c3c(-c4ccc(C(F)(F)F)cc4)nn4ncccc34)n2)cc1F next?
OUT: 0.0

IN: Can you check Cc1cc(O)cc(C)c1/C=C/c1cncc(C(N)=O)c1 next?
OUT: 1.0

IN: Can you check CC1(C)CC(n2cnc(-c3ccc(F)cc3)c2-c2ccnc(N)n2)CC(C)(C)N1 next?
OUT: 0.0

IN: Can you check COc1cccc(-n2ncc3c(N/N=C/c4ccc(C(=O)NCCN(C)C)cc4)ncnc32)c1 next?
OUT: 1.0

IN: Can you check CCOc1ccc2c(-c3ccnc(Nc4cc(OC)cc(C(F)(F)F)c4)n3)cnn2n1 next?
OUT: 0.0

IN: Can you check CS(=O)(=O)CCNCc1ccoc1-c1ccc2ncnc(Nc3ccc(OCc4ccccc4)cc3)c2c1 next?
OUT: 0.0

* * *

Target: ALK tyrosine kinase receptor (Homo sapiens) (UniProt Q9UM73)
Sequence (Q9UM73 19-1620 limits assumed): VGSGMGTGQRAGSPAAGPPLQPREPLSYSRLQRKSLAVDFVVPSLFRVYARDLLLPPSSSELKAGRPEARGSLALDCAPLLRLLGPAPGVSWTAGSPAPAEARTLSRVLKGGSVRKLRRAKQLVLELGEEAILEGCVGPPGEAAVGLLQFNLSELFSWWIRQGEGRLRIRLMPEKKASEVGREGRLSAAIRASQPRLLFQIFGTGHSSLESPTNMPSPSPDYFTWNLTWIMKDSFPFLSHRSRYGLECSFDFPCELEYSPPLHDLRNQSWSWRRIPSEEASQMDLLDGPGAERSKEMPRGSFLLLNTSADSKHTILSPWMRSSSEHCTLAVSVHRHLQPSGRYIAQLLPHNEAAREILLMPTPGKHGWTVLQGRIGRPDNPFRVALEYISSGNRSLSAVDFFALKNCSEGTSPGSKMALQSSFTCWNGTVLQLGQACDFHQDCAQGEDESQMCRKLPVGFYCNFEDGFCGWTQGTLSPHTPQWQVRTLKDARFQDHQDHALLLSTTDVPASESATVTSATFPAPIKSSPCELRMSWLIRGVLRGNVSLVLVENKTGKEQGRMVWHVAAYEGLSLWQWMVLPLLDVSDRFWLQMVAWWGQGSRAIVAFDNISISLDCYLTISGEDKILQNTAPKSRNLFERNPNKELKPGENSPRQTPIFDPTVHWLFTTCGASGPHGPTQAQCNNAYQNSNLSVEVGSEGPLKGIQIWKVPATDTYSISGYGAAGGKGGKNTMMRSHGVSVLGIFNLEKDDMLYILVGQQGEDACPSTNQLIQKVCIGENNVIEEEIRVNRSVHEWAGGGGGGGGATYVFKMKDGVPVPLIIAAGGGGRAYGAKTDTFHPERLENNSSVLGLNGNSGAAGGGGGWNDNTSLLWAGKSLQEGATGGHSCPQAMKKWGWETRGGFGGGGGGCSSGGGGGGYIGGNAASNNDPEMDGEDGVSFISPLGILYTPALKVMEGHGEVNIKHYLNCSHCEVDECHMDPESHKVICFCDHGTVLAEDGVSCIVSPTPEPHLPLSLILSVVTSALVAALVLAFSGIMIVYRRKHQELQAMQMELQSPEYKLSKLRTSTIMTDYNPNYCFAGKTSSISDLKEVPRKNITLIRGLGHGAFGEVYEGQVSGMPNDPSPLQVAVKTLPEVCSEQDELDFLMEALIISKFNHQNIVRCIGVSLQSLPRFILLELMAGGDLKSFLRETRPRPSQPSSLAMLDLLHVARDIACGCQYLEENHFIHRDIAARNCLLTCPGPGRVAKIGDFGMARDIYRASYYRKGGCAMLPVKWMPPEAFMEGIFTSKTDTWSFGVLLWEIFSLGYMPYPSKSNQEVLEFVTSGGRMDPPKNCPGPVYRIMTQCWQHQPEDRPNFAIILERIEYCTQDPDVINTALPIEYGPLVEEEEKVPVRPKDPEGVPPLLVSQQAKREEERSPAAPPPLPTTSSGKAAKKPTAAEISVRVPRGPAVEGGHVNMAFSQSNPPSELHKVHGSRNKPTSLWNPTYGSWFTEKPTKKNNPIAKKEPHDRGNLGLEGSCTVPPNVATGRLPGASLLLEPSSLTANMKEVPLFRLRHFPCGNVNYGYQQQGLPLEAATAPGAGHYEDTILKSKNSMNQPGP
Conditions: at 0.1 µM
Description: GSK_PKIS: ALK mean inhibition at 0.1 uM [Nanosyn]
Reported values of inhibition for individual entries
API: value field is a number in %; no unit string.

- smiles structure: "CN1CCC(n2cnc(-c3ccc(F)cc3)c2-c2ccnc(NCCO)n2)CC1"
  readout type: "inhibition"
  observed measurement: 3.71
- smiles structure: "N#Cc1cccc(Nc2ncc(-c3ccccc3)o2)c1"
  readout type: "inhibition"
  observed measurement: 1.63
- smiles structure: "COc1cccc(-n2ncc3c(N/N=C/c4ccc(C(=O)NCCN(C)C)cc4)ncnc32)c1"
  readout type: "inhibition"
  observed measurement: 3.26
- smiles structure: "c1ccc(-c2n[nH]cc2-c2ccnc(-c3ccc(OCCn4ccnc4)cc3)c2)nc1"
  readout type: "inhibition"
  observed measurement: -0.73
- smiles structure: "NS(=O)(=O)c1ccc(N/N=C2\\C(=O)Nc3ccc(C(=O)NCc4ccncc4)cc32)cc1"
  readout type: "inhibition"
  observed measurement: 1.39

IN: Form entry - test system: ALK tyrosine kinase receptor (Homo sapiens) (UniProt Q9UM73); read-out: inhibition; compound: COC(=O)Nc1nc2cc(Oc3ccc(NC(=O)Nc4ccccc4)cc3)ccc2[nH]1
OUT: 1.19

IN: Can you check COc1cc(N2CCN(C(C)C)CC2)ccc1Nc1nc(Nc2cccc(F)c2C(=O)O)c2cc[nH]c2n1 next?
OUT: 68.1

* * *

Molecular target: MAP kinase-activated protein kinase 2 (Homo sapiens) (UniProt P49137);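 also: values are mean inhibition from the GSK PKIS screen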
Sequence (P49137 whole entry, looked up): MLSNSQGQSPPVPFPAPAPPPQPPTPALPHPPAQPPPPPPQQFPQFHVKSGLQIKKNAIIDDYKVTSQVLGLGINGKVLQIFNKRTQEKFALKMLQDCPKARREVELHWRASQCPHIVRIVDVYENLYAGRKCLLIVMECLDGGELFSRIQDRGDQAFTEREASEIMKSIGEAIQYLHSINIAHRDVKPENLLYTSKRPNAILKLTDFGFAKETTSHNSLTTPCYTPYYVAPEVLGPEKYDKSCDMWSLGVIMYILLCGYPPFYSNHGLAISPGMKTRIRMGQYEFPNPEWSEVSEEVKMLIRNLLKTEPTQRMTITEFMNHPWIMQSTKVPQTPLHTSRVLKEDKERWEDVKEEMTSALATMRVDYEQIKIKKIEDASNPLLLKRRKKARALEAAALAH
Conditions: at 1 µM
readout type: inhibition (%)
API: value field is a number in %; no unit string.

Illustrative cases are given below, each with its answer.
- smiles structure: "Fc1cccc(COc2ccc(Nc3ncncc3C#Cc3ccccc3)cc2Cl)c1"
  readout type: "inhibition"
  u: "%"
  observed measurement: 2.47
- smiles structure: "OCCCNc1nccc(-c2c(-c3ccc(F)cc3)nn3cc(C(F)(F)F)ccc23)n1"
  readout type: "inhibition"
  u: "%"
  observed measurement: 0.71

IN: Suppose we examine the compound CCN1CCC(C(=O)Nc2n[nH]c3nnc(-c4cccc(F)c4F)cc23)CC1 ; what inhibition value has been reported?
OUT: -0.88

IN: Can you check CCOc1ccc2c(-c3ccnc(Nc4cc(OC)cc(C(F)(F)F)c4)n3)cnn2n1 next?
OUT: -0.09

IN: Can you check COC(=O)Nc1nc2cc(Oc3ccc(NC(=O)Nc4ccccc4)cc3)ccc2[nH]1 next?
OUT: 1.44

IN: Can you check O=C(O[C@H]1CN[C@H](C#Cc2cc3ncnc(Nc4ccc(OCc5cccc(F)c5)c(Cl)c4)c3s2)C1)N1CCOCC1 next?
OUT: 0.31

IN: Can you check CS(=O)(=O)Nc1ccc(-c2ccc3c(NC(=O)C4CC4)n[nH]c3c2)cc1 next?
OUT: 1.14

IN: Can you check CN1CCC(C(=O)Nc2n[nH]c3nc(-c4ccc(O)cc4)c(Br)cc23)CC1 next?
OUT: 1.12

IN: Can you check NC(=O)c1ccc2c(-c3ccnc(NCCCO)n3)c(-c3ccc(F)cc3)nn2c1 next?
OUT: 5.02

* * *

Target: Protein kinase C theta type (Homo sapiens) (UniProt Q04759)
Sequence (Q04759 whole entry, looked up): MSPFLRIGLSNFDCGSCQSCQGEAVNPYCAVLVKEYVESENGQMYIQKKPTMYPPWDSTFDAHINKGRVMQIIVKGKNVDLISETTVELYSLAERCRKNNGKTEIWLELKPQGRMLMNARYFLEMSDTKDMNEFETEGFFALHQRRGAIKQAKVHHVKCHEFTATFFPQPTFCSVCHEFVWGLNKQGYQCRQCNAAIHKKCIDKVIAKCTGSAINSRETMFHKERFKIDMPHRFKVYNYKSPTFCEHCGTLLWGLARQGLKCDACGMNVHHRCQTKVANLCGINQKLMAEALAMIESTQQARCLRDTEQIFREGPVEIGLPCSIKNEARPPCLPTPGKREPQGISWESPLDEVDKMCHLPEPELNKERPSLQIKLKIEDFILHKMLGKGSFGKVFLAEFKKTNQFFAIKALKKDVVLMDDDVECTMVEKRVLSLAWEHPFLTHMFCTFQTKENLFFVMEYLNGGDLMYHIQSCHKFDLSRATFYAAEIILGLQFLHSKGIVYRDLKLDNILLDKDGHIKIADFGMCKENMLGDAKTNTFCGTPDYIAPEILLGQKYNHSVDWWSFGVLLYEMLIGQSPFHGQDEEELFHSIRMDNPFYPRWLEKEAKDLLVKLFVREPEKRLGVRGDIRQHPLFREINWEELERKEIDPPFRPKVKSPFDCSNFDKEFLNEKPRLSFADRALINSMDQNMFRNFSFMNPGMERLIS
Details: at 1 µM
readout type: inhibition (%)
API: value field is a number in %; no unit string.

Illustrative cases are given below, each with its answer.
- compound: "NC(=O)c1ccc2c(-c3ccnc(NCCCO)n3)c(-c3ccc(F)cc3)nn2c1"
  observed measurement: 2.63
- compound: "CS(=O)(=O)Nc1ccc(-c2ccc3c(NC(=O)C4CC4)n[nH]c3c2)cc1"
  observed measurement: -0.36
- compound: "CC1=C(C(=O)Nc2ccc3[nH]nc(C)c3c2)C(c2ccc(C(F)(F)F)cc2)CC(=O)N1 (stereo not given)"
  observed measurement: 6.09
- compound: "OCCCNc1nccc(-c2c(-c3ccc(F)cc3)nn3cc(C(F)(F)F)ccc23)n1"
  observed measurement: 0.91
- compound: "Cc1c2ccc(N(C)c3ccnc(Nc4cccc(S(N)(=O)=O)c4)n3)cc2nn1C"
  observed measurement: 2.51
- compound: "CNC(=O)c1ncccc1Nc1nc(Nc2cc3c(cc2OC)CCCN3C(=O)CN(C)C)nc2[nH]ccc12"
  observed measurement: 5.49
- compound: "Cn1c(-c2nonc2N)nc2cnccc21"
  observed measurement: 3.08
- compound: "CCOc1ccc2c(-c3ccnc(Nc4cc(OC)cc(C(F)(F)F)c4)n3)cnn2n1"
  observed measurement: -0.68
- compound: "CNC(=O)c1sc(-n2cnc3cc(OC)c(OC)cc32)cc1OCc1ccccc1C(F)(F)F"
  observed measurement: 0.67

Next item in the queue.
IN: Form entry - test system: Protein kinase C theta type (Homo sapiens) (UniProt Q04759); read-out: inhibition; compound: CS(=O)(=O)Nc1ccc(-c2cc(-c3ccccc3)cc(C(N)=O)c2N)cc1;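 also: each value is a mean inhibition of PKC-theta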
OUT: 0.71

Reference source for all entries: ChEMBL document CHEMBL1961873
